target: Histone deacetylase 3 (Homo sapiens)
Sequence (O15379 whole entry): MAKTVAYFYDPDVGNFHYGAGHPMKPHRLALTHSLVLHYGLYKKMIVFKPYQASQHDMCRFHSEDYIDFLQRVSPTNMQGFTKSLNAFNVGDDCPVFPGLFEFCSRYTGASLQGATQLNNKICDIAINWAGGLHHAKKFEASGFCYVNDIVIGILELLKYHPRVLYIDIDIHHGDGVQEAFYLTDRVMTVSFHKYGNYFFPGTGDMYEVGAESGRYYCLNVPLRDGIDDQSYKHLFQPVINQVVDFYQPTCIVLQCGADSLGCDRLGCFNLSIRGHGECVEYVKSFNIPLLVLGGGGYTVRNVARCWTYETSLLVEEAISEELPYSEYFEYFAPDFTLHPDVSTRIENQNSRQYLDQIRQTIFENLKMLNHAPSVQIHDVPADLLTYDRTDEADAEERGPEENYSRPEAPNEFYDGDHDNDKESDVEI
So basically: is IC50 under 500 µM? Then met. Not under? Then not met.

compound	assignedCategory
CNC(=O)C(=O)CCCC[C@@H](C)[C@H]1CC[C@H]2/C(=C/C=C3C[C@@H](O)C[C@H](O)C3)CCC[C@]12C	met
C[C@H](CCCNS(C)(=O)=O)[C@H]1CC[C@H]2/C(=C/C=C3C[C@@H](O)C[C@H](O)C3)CCC[C@]12C	not met
C[C@H](CCCC(=O)Nc1ccccc1N)[C@H]1CC[C@H]2/C(=C/C=C3C[C@@H](O)C[C@H](O)C3)CCC[C@]12C	met
C[C@H](CCCCC(=O)NO)[C@H]1CC[C@H]2/C(=C/C=C3C[C@@H](O)C[C@H](O)C3)CCC[C@]12C	met
C[C@H](CCCCNS(N)(=O)=O)[C@H]1CC[C@H]2/C(=C/C=C3C[C@@H](O)C[C@H](O)C3)CCC[C@]12C	met
C[C@H](CCCCC(=O)Nc1ccccc1N)[C@H]1CC[C@H]2/C(=C/C=C3C[C@@H](O)C[C@H](O)C3)CCC[C@]12C	met
C[C@H](CCCCNC(=O)CS)[C@H]1CC[C@H]2/C(=C/C=C3C[C@@H](O)C[C@H](O)C3)CCC[C@]12C	met
CCCCS(=O)(=O)NCCCC[C@@H](C)[C@H]1CC[C@H]2/C(=C/C=C3C[C@@H](O)C[C@H](O)C3)CCC[C@]12C	not met

====

tested on: Mus musculus; experiment: Toxicity in FVB mouse assessed as calcium level in blood at 1200 pmol/day administered via osmotic pump for 6 to 7 days measured on day 3 by microchemistry (RVb = 2.24 mmol/L); type: organism-based; conditions: in vivo, other
Reported Activity values follow for various compounds

compound	Activity
C[C@H](CCCC(=O)Nc1ccccc1N)[C@H]1CC[C@H]2/C(=C/C=C3C[C@@H](O)C[C@H](O)C3)CCC[C@]12C	2.07 mmol/L
CC(/C=C/C(=O)NO)=C\[C@@H](C)[C@H]1CC[C@H]2/C(=C/C=C3\C[C@@H](O)C[C@@H](O)C3)CCC[C@]12C	1.92 mmol/L
C[C@H](CCCCNS(C)(=O)=O)[C@H]1CC[C@H]2/C(=C/C=C3C[C@@H](O)C[C@H](O)C3)CCC[C@]12C	2.01 mmol/L
C[C@H](CCCCC(=O)NO)[C@H]1CC[C@H]2/C(=C/C=C3C[C@@H](O)C[C@H](O)C3)CCC[C@]12C	2.03 mmol/L

====

system: Mus musculus; experiment: Toxicity in FVB mouse assessed as calcium level in blood at 240 pmol/day administered via osmotic pump for 6 to 7 days measured on day 7 by microchemistry (RVb = […] mmol/L); type: organism-based; settings: in vivo, other

compound	testedTarget	resultUnit	Activity
C[C@H](CCCCNC(=O)CS)[C@H]1CC[C@H]2/C(=C/C=C3C[C@@H](O)C[C@H](O)C3)CCC[C@]12C	Mus musculus	mmol/L	2.02
CCCCS(=O)(=O)NCCCC[C@@H](C)[C@H]1CC[C@H]2/C(=C/C=C3C[C@@H](O)C[C@H](O)C3)CCC[C@]12C	Mus musculus	mmol/L	2.05
C[C@H](CCCCNS(=O)(=O)c1ccccc1)[C@H]1CC[C@H]2/C(=C/C=C3C[C@@H](O)C[C@H](O)C3)CCC[C@]12C	Mus musculus	mmol/L	1.95
C[C@H](CCCCC(=O)Nc1ccccc1N)[C@H]1CC[C@H]2/C(=C/C=C3C[C@@H](O)C[C@H](O)C3)CCC[C@]12C	Mus musculus	mmol/L	1.8
